Assay: qHTS Assay for Lipid Storage Modulators in Drosophila S3 Cells
Conditions: BODIPY lipid droplet fluorescence, 18-24 h, cells fed with added oleic acid; series mostly up to 46.1 µM
Hit rate of the full screen: of about 320,000 compounds, about 2,100 (0.66%) were called active. Another 53% or so got no clear call; they are omitted. Calls come from the whole dose curve; as a rule, active = well fitted inhibition curve with a large enough effect in the signal ratio, with a control signal flat (not every such curve was filed as active); inconclusive = small, poorly fitted or top-dose-only effect, or effect the other way, or a change in a side signal; inactive = flat fitted curve, though single readings scatter; the % refers to the signal ratio. For the sample, actives were picked, then their nearest neighbours and some compounds at random.
Mark one answer only. Choices: YES for active, NO for inactive

molecule: O=C(Nc1cccc(-n2cnnn2)c1)c1ccco1
assigned_class: NO

## Input # fetch the recorded call for O=C(COc1cccc(-n2cnnn2)c1)Nc1ccccc1 here
## Output NO

## Input Check O=C(Nc1cccc(-n2cnnn2)c1)c1ccoc1COc1ccc(Cl)cc1 too.
## Output YES

---

Assay: qHTS Assay for Lipid Storage Modulators in Drosophila S3 Cells;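 for cell number change: cells counted by Cell Tracker Red CMTPX staining in the red channel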
Settings: BODIPY lipid droplet fluorescence, 18-24 h, cells fed with added oleic acid; measured here: cell count max response
Screen size: about 320,000 compounds; about 2,100 (0.66%) were called active. Inconclusive results (about 53%) are left out. This is one part of a sample in which actives are shown more often than they occur.
cell number change values, listed per item
Express your answer in %, writing the number without its unit.

See these solved cases before continuing.
molecule: c1cncc(-c2cn(C[C@H]3CC[C@@H]([C@@H]4CC[C@H](Cn5cc(-c6cccnc6)nn5)O4)O3)nn2)c1
cell number change, %: 9.88
//
molecule: CC1CCCCC1NC(=O)COC(=O)Cc1ccc(Cl)cc1 (stereo unspecified)
cell number change, %: -17.8
//
molecule: CCCCSCCCNC(=S)Nc1ccccc1C
cell number change, %: -6.21
//
molecule: COc1ccc(OCC(=O)OCC(=O)NC2CCCCC2C)cc1 (stereo unspecified)
cell number change, %: 5.06
//
molecule: O=C1Nc2ncccc2OC1CCCl (stereo unspecified)
cell number change, %: 11.9

## Input Fill blank: measured cell number change of the molecule c1ccc(-c2cn(C[C@H]3CC[C@@H]([C@@H]4CC[C@H](Cn5cc(-c6ccccc6)nn5)O4)O3)nn2)cc1 is ____.
## Output -7.49

---

Assay: qHTS Assay for Lipid Storage Modulators in Drosophila S3 Cells
Conditions: BODIPY lipid droplet fluorescence, 18-24 h, cells fed with added oleic acid; series mostly up to 46.1 µM
Screen size: about 320,000 compounds; about 2,100 (0.66%) were called active. Roughly 53% stayed inconclusive and do not appear here. Calls come from the whole dose curve; as a rule, active = well fitted inhibition curve with a large enough effect in the signal ratio, with a control signal flat (not every such curve was filed as active); inconclusive = small, poorly fitted or top-dose-only effect, or effect the other way, or a change in a side signal; inactive = flat fitted curve, though single readings scatter; the % refers to the signal ratio. The entries come from a sample that favours actives as a whole.
Returns: one label drawn from true (1) = active, false (0) = inactive

Consider the worked cases shown below.
compound: Cc1c(/C=N/N=C2\CCC3C4CCc5cc(O)ccc5C4CCC23C)cnn1C (stereo unspecified)
assigned_class: false (0)
--
compound: COc1ccc(CC(=O)NCC2COc3ccccc3O2)cc1 (stereo unspecified)
assigned_class: false (0)
--
compound: Cc1ccc(CNC(=O)C2CCCN(S(=O)(=O)c3cnc[nH]3)C2)cc1 (stereo unspecified)
assigned_class: false (0)
--
compound: CCOC(=O)/C(=N\NC(=O)c1ccccc1)c1ccccc1
assigned_class: false (0)
--
compound: COc1ccc(CNC(=O)C2CCCN(S(=O)(=O)c3cnc[nH]3)C2)cc1 (stereo unspecified)
assigned_class: true (1)
--
compound: COc1ccc(Cl)cc1S(=O)(=O)N1CCC(C(=O)NCC2CCCO2)CC1 (stereo unspecified)
assigned_class: false (0)
--
compound: Cn1c2c(c3ccccc31)CC/C2=N\O
assigned_class: false (0)
--
compound: Cc1ccc(NC(=O)CNC(=O)c2ccc(Br)o2)nc1
assigned_class: false (0)

## Input Answer briefly: the call reported for Cc1nnc(SCCN2C(=O)c3ccccc3C2=O)[nH]c1=O in this assay.
## Output false (0)

## Input Same question for CCN(CCCNC(=O)C1CCN(S(=O)(=O)c2cnc[nH]2)CC1)c1ccccc1 please.
## Output false (0)

## Input Now consider CCN=C1S/C(=C\c2cc(Br)c(O)c(OC)c2)C(=O)N1CC .
## Output false (0)

---

Experiment: qHTS Assay for Lipid Storage Modulators in Drosophila S3 Cells
Conditions: BODIPY lipid droplet fluorescence, 18-24 h, cells fed with added oleic acid; series mostly up to 46.1 µM
Out of some 320,000 compounds screened, about 2,100 (0.66%) were called active. Not shown: some 53% with an inconclusive outcome. Calls follow the shape of the dose curve; as a rule, active = well fitted inhibition curve with a large enough effect in the signal ratio, with a control signal flat (not every such curve was filed as active); inconclusive = small, poorly fitted or top-dose-only effect, or effect the other way, or a change in a side signal; inactive = flat fitted curve, though single readings scatter; the % refers to the signal ratio. The list comes from a sample in which actives are over-represented; it also holds close analogues and randomly drawn compounds.
Answer with one of the outcomes TRUE for active, FALSE for inactive

compound: O=C(CN(C(=O)CCC(=O)Nc1nccs1)c1ccc2c(c1)OCO2)NCC1CCCO1 (stereo not given)
assigned_class: FALSE
//
compound: COc1ccc(OC)c(-c2csc(NC(=O)C3CSC4(C)CCC(=O)N34)n2)c1 (stereo not given)
assigned_class: FALSE
//
compound: CCOC(=O)c1ccc(-c2ccc(/C=N/NC(=O)CN(c3ccccc3Br)S(C)(=O)=O)o2)cc1
assigned_class: TRUE
//
compound: COc1ccc(NC(=O)C2CCN(S(=O)(=O)c3ccc4c(c3)NC(=O)C(C)S4)CC2)cc1 (stereo not given)
assigned_class: FALSE

## Input Can you look up the reported call for O=C(NC1CCCC1)C(c1c(F)cccc1Cl)N(C(=O)c1csnn1)C1CC1 (stereo not given) for me?
## Output TRUE

## Input // repeat for COc1ccccc1NC(=S)NCc1ccc(S(N)(=O)=O)cc1 and report
## Output FALSE

## Input Repeat for the following compound: COc1ccccc1NC(=S)NCc1ccc(Cl)cc1
## Output FALSE

---

In this section, each of the compounds is paired with its reported cell number change.
Test: qHTS Assay for Lipid Storage Modulators in Drosophila S3 Cells;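 for cell number change: cells counted by Cell Tracker Red CMTPX staining in the red channel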
Conditions: BODIPY lipid droplet fluorescence, 18-24 h, cells fed with added oleic acid; measured here: cell count max response
In all, about 320,000 compounds went through this assay and about 2,100 (0.66%) were called active. Not shown: some 53% with an inconclusive outcome. Only a selection was taken, and actives are over-represented in it overall.
Provide only the numeric value, understood in %.

compound: CCCCc1nnc(NC(=O)C(C)Sc2nc(O)c(Cc3ccccc3)c(=O)[nH]2)s1 (configuration not stated)
cell number change, %: -6.85
--
compound: CN(C)N1C(=O)CC(C)(c2ccc([N+](=O)[O-])cc2)C1=O (configuration not stated)
cell number change, %: -4.15
--
compound: CCCCCCCCCCOC(=O)C[N+](C)(C)C/C=C(/C)Cl
cell number change, %: -24.8
--
compound: O=C(CN1CCN(c2ccccc2O)CC1)NC(c1ccccc1)c1ccccc1
cell number change, %: 6.07
--
compound: CC(=O)NCCC1CCN(C(=O)C2CCC(=O)N(C3CCCC3)C2)CC1 (configuration not stated)
cell number change, %: 0.283

## Input Value lookup for cell number change; key = Cc1cc(=O)oc2c3c(cc(OCC(=O)NCC(=O)O)c12)OC(C)(C)CC3
## Output 13.8

## Input Same question for O=C(/C=C/c1cccnc1)c1ccc([N+](=O)[O-])cc1 please.
## Output 10.1

---

Assay: qHTS Assay for Lipid Storage Modulators in Drosophila S3 Cells
Details: BODIPY lipid droplet fluorescence, 18-24 h, cells fed with added oleic acid; series mostly up to 46.1 µM
From the text: NIH Molecular Libraries Probe Production Centers Network [MLPCN] NIH Chemical Genomics Center [NCGC] […] Triacsin C (Sigma-Aldrich T-4540), an inhibitor of long-chain fatty acyl CoA synthetase that blocks synthesis of triglycerides, was used as a positive control for lipid under-storage. […] Fluorescence was detected by excitation of the fluorophores with a 488-nm laser on an Acumen Explorer (TTP Lab Tech). […] Cells were detected using channel 3 (575-640 nm) with 5-um width and 100-um depth filters. […]
Among all 320,000 compounds or so, about 2,100 (0.66%) were called active. Not shown: some 53% with an inconclusive outcome. The call rests on the fitted dose curve; in most records, active means well fitted inhibition curve with a large enough effect in the signal ratio, with a control signal flat (not every such curve was filed as active); inconclusive means small, poorly fitted or top-dose-only effect, or effect the other way, or a change in a side signal; inactive means flat fitted curve, though single readings scatter; the % refers to the signal ratio. What follows is part of a selection rich in actives, with near analogues and random picks from the rest.
Outcome field: choose from 1 for active, 0 for inactive

substance_smiles: COc1ccccc1CNC(=O)CN(C)S(=O)(=O)c1ccc2c(c1)c(=O)n(C)c(=O)n2C
assigned_class: 1

## Input Recorded test call requested for COc1ccc(/C=C(\C#N)C(=O)c2c(C)[nH]c3ccccc23)cc1OC
## Output 0

## Input // next record CCSc1nc2ccccc2n1CCC(=O)O
## Output 0

## Input Follow-up entry: COc1ccc(S(=O)(=O)N(CC(=O)Nc2cccnc2)c2ccccc2OC)cc1
## Output 0

## Input Same again, this time with CCc1ccccc1NC(=O)CN(c1ccc(OC)cc1OC)S(=O)(=O)c1ccccc1[N+](=O)[O-]
## Output 0

## Input Can you check CCCOC(=O)Cn1c(=O)c2cc3c(=O)n(CC(=O)OCCC)c(=O)c3cc2c1=O next?
## Output 0

## Input Can you handle COc1ccccc1N(CC(=O)Nc1cccnc1)S(=O)(=O)c1ccccc1 next?
## Output 0

## Input Next record, please: COc1cccc(CNC(=O)CN(C)S(=O)(=O)c2ccc3c(c2)c(=O)n(C)c(=O)n3C)c1
## Output 0

## Input Another: COc1ccc(N(CC(=O)Nc2ccc(OC)cc2OC)S(=O)(=O)c2ccccc2)cc1
## Output 0

## Input One more compound: CCc1ccccc1NC(=O)CN(c1ccc(OC)cc1OC)S(=O)(=O)c1ccccc1
## Output 1
